Data origin, for the record: the supplement of paper PMC13380429

Tested on: Vero E6 infected with SARS-CoV-2
ASSAY INFO: inhibition of SARS-CoV-2 cytopathic effect; higher = more antiviral protection, active = above 15
CONDITION: 1 nM; 48 h
QUANTITY: inhibition of SARS-CoV-2 cytopathic effect

Please give the measured inhibition of SARS-CoV-2 cytopathic effect for this molecule: `Cc1cc(C(N)=O)ccc1-n1c(CCC(=O)O)ccc1-c1ccc(-n2ccnc2)cc1`
-3.46% (inactive)

Lookup CCCCN1CCCCC1C(=O)Nc1c(C)cccc1C (stereo unspecified)
2.92% (inactive)

What do we get for CCCCCN(C)CCC(O)(P(=O)(O)O)P(=O)(O)O [ibandronate] ?
0.68% (inactive)

# repeat for O=C(Nc1ccccc1C(=O)NC1CCCCNC1=O)c1cc2ccccc2s1 (stereo unspecified)
-1.69% (inactive)

Next up: CC(C)[C@H]1CC[C@H](C(=O)N[C@H](Cc2ccccc2)C(=O)O)CC1 [nateglinide]
0.56% (inactive)

What do we get for COc1cc(NC(C)CCCN)c2ncccc2c1 (stereo unspecified) ?
1.68% (inactive)

Moving on to the next molecule: O=C(O)C(O)Cc1ccc(O)c(O)c1 (stereo unspecified) [sodium-danshensu]
1.07% (inactive)

Now consider `N#Cc1ccc(N(Cc2ccc(Br)cc2)n2cnnc2)cc1` .
1.03% (inactive)

Also need `OCCn1cc(-c2cnc3nnn(Cc4ccc5ncccc5c4)c3n2)cn1` , thanks.
1.37% (inactive)

Can you check `O=C1C2CCN(CC2)C1(CO)CO` next?
-0.42% (inactive)

Now this one: `O=C(O)CCCC[C@@H]1CCSS1`
0.04% (inactive)

###

Record form. Attribute: inhibition of SARS-CoV-2 cytopathic effect. Fill in for each entry.
Test system: Vero E6 infected with SARS-CoV-2
ASSAY INFO: inhibition of SARS-CoV-2 cytopathic effect; higher = more antiviral protection, active = above 15
CONDITION: 833.33 nM; 48 h
Numbers only here, please. The scale is %.

Bench note: what inhibition of SARS-CoV-2 cytopathic effect did `Nc1ncnc2c1c(COc1cccc(Cl)c1)nn2C1CCOCC1` show?
-1.57

Same read-out for `CC[C@H](CO)Nc1nc(NCc2ccccc2)c2ncn(C(C)C)c2n1` ?
-1.46

Ok, now C=CCSCC1Nc2cc(Cl)c(S(N)(=O)=O)cc2S(=O)(=O)N1 (stereo not given) [althiazide]
-0.46

Follow-up item: `Cn1c(C#N)ccc1-c1ccc2c(c1)C(C)(C)OC(=S)N2`
3.55

Can you handle `C[C@H](C[C@H](N)C(=O)O)C(=O)O` next?
-0.6

###

System: Vero E6 infected with SARS-CoV-2
ASSAY INFO: SARS-CoV-2 infection rate relative to infected DMSO; higher = more infection, active = 60 or less
CONDITION: 24 h
I'd appreciate it if you could supply SARS-CoV-2 infection rate values for the items below.
Express it in %; write the number only.

// lookup SARS-CoV-2 infection rate for CN(C)CCC(c1ccc(Br)cc1)c1ccccn1 (stereo not drawn) [brompheniramine] (10 µM)
106

Field entry: NC(=O)CN1CC(c2ccccc2)CC1=O (stereo not drawn) [phenylpiracetam] (10 µM)
94

Also Clc1ccc(CSC(Cn2ccnc2)c2ccc(Cl)cc2Cl)cc1 (stereo not drawn) [sulconazole] (10 µM) ?
110

Try CCCN[C@H]1CCc2nc(N)sc2C1 [pramipexole] (10 µM) next.
120

And then CCCCOc1cc(C(=O)NCCN(CC)CC)c2ccccc2n1 [cinchocaine] (10 µM) , what is it?
88

Another compound: C/C(=C\c1csc(C)n1)[C@@H]1C[C@@H]2O[C@]2(C)CCC[C@H](C)[C@H](O)[C@@H](C)C(=O)C(C)(C)[C@@H](O)CC(=O)N1 [ixabepilone] (10 µM)
108

Also need CN(C(=O)Cc1ccc(Cl)c(Cl)c1)[C@H](CN1CCCC1)c1ccccc1 (10 µM) , thanks.
21.5

Okay, and CN(C)CCOC(c1ccc(Cl)cc1)c1ccccn1 (stereo not drawn) [carbinoxamine] (10 µM) ?
96

###

Test system: Vero E6 infected with SARS-CoV-2
ASSAY INFO: inhibition of SARS-CoV-2 cytopathic effect; higher = more antiviral protection, active = above 15
CONDITION: 100 nM; 48 h
QUANTITY: inhibition of SARS-CoV-2 cytopathic effect (%)
Respond numerically; units are % and should not be typed.

What does the data say about its inhibition of SARS-CoV-2 cytopathic effect? Entry: `CN1CCC(COc2cnc(-c3cccc(Cn4nc(-c5cccc(C#N)c5)ccc4=O)c3)nc2)CC1`
1.4

Thanks! And `O=C1OC2(c3ccccc31)c1cc(I)c(O)c(I)c1Oc1c2cc(I)c(O)c1I` ?
-2.6

Queued: `Nc1nc(=O)n([C@H]2C[C@H](O)[C@@H](CO)O2)cc1F`
-0.04

Then what about the molecule `CO/N=C(\C(=O)N[C@@H]1C(=O)N2C(C(=O)O)=C(CSc3nc(C)c(CC(=O)O)s3)CS[C@H]12)c1csc(N)n1` ?
-2

What do you have for `CNc1nc(-c2ccc3c(N)n[nH]c3c2)cc(N2C[C@@H](C(=O)NC3CCCCC3)CC[C@H]2C)n1` ?
1.23

Try the molecule C[C@H](Oc1cc(-c2cnn(C3CCNCC3)c2)cnc1N)c1c(Cl)ccc(F)c1Cl [crizotinib-(S)]
-0.33

Input `Cc1ccc(NC(=O)C2(c3ccc4c(c3)OC(F)(F)O4)CC2)nc1-c1cccc(C(=O)O)c1`
-1.4

Here is the next molecule: `Cc1ncc(CSSCc2cnc(C)c(O)c2CO)c(CO)c1O`
2.92

###

Assignment: determine reported inhibition of SARS-CoV-2 cytopathic effect for the given compounds.
Tested on: Vero E6 infected with SARS-CoV-2
ASSAY INFO: inhibition of SARS-CoV-2 cytopathic effect; higher = more antiviral protection, active = above 15
CONDITION: 100 nM; 48 h
Quick reminder: number only, in %, skip the unit.

Which inhibition of SARS-CoV-2 cytopathic effect value is on record for `CC(=O)N[C@@H](CC(=O)O)C(=O)N[C@@H](CCC(=O)O)C(=O)O` ?
-2.69

Would you mind doing `CN1[C@H]2C[C@H](OC(=O)[C@H](CO)c3ccccc3)C[C@@H]1[C@@H](O)C2` as well?
3.99

Can you check `Cc1cc(C)c(N(Cc2ccccc2)S(=O)(=O)c2ccc(OCCNC(=O)c3cc4ccccc4o3)cc2)c(C(=O)NO)c1` next?
-1.74

Now the same for `Brc1c(Br)c(Br)c2[nH]nnc2c1Br`
-0.07

Same question for COc1ccc(C2CNC(=O)C2)cc1OC1CCCC1 (stereo not drawn) please.
-1.59

Do the same for `CN[C@@H](C)C(=O)N[C@H](C(=O)N1CCC[C@H]1C(=O)Nc1snnc1-c1ccccc1)C1CCCCC1` please
-0.23

And what about the compound `NCCc1c[nH]cn1` ?
0.17

// same read-out, input: CC[C@]1(O)C[C@@H]2CN(CCc3c([nH]c4ccccc34)[C@@](C(=O)OC)(c3cc4c(cc3OC)N(C)[C@H]3[C@@](O)(C(=O)OC)[C@H](OC(C)=O)[C@]5(CC)C=CCN6CC[C@]43[C@@H]65)C2)C1 [Vinblastine (sulfate)]
-0.03

###

Test system: Vero E6 infected with SARS-CoV-2
ASSAY INFO: inhibition of SARS-CoV-2 cytopathic effect; higher = more antiviral protection, active = above 15
CONDITION: 100 nM; 48 h
QUANTITY: inhibition of SARS-CoV-2 cytopathic effect (%)
// return numeric value only (unit: %, not printed)

Reported inhibition of SARS-CoV-2 cytopathic effect, compound N#Cc1ccnc(N2C(=O)CC[C@H]2C(=O)N(c2cncc(F)c2)[C@H](C(=O)NC2CC(F)(F)C2)c2ccccc2Cl)c1 [ivosidenib] : ____
0.3

# repeat for N#C/C(=C1/SC[C@@H](c2ccc(Cl)cc2Cl)S1)n1ccnc1 [luliconazole]
2.17

Same read-out for CCC/C=C1\OC(=O)C2=C1CCC=C2 [ligustilide] ?
8.75

Next record, please: CCOc1ccccc1-n1c(C(C)N2CCN(C(=O)COc3ccc(Cl)cc3)CC2)nc2ccccc2c1=O (stereo not drawn) [erastin]
-0.86

One more compound: CC(C(=O)O)c1cccc(Oc2ccccc2)c1 (stereo not drawn) [fenoprofen]
0.97

Proceed to O=C/C=C/c1ccccc1 [cinnamaldehyde]
1.04

Also check `Cn1cc(-c2cnn3c(N)c(Br)c([C@@H]4CCCNC4)nc23)cn1`
2.32

Entry C[C@@H]1C[C@H]2[C@@H]3C[C@H](F)C4=CC(=O)C=C[C@]4(C)[C@@]3(F)[C@@H](O)C[C@]2(C)[C@@]1(O)C(=O)COC(=O)C(C)(C)C [flumethasone-pivalate] please
-1.68

###

System: Vero E6 infected with SARS-CoV-2
ASSAY INFO: inhibition of SARS-CoV-2 cytopathic effect; higher = more antiviral protection, active = above 15
CONDITION: 1 nM; 48 h
QUANTITY: inhibition of SARS-CoV-2 cytopathic effect (%)
Reply numerically in %, unit not repeated.

May I ask what inhibition of SARS-CoV-2 cytopathic effect has been recorded for `CCOc1ccccc1C(=O)O` ?
2.67

`O=C(O)c1cn(-c2ccc(F)cc2)c2cc(N3CCNCC3)c(F)cc2c1=O` ?
-2.73

Same thing, different molecule: C=CC1=C(C)C2=CC3=NC(=C(CC(=O)O)C4=NC(=C(C)C4=C(O)O)C=c4[nH]c(c(C)c4CC)=CC1=N2)C(CCC(=O)O)C3C (configuration not stated)
-0.57

Note, next up: `O=C(O)c1ccc(OCCn2ccnc2)cc1`
1.06

For `COc1ccc(CCN2CCN(CCCc3ccccc3)CC2)cc1OC` then?
1.71

What about `CN(CCOc1ccc(C[C@H](Nc2ccccc2C(=O)c2ccccc2)C(=O)O)cc1)c1ccccn1` ?
2.1

Would you kindly repeat that for `COc1cccc(NC(=O)/C=C/c2ccc(Cl)cc2)c1` ?
-1.02

Consider next the molecule `CCNC(=O)c1n[nH]c(-c2cc(Cl)c(O)cc2O)c1-c1ccc(OC)cc1` in the same way.
-4.03

Same lookup for `COc1c2occc2c(OC)c2c(=O)cc(C)oc12` , please.
3.97

Param item: `C[C@H]1C[C@H]2[C@@H]3CCC4=CC(=O)C=C[C@]4(C)[C@H]3C(=O)C[C@]2(C)[C@@]1(O)C(=O)CO`
0.88

Further, for `C=CCNc1nc(NCC=C)nc(N2CCN(C(c3ccc(F)cc3)c3ccc(F)cc3)CC2)n1` ?
-6.44

Next molecule: OCCNC1CCCc2c1[nH]c1ccc(-c3ccccc3)cc21 (configuration not stated)
-1.66

Now give it for CCCC(C)C1(CC)C(=O)NC(=S)NC1=O (configuration not stated) too.
-0.77

What about this molecule? `CSc1nc(NC2CCCC2)c([N+](=O)[O-])c(NC2CCCC2)n1`
-0.65

Lookup `COc1ccc(-c2cc3nccn3c(Nc3ncccc3C(N)=O)n2)cc1OC`
-3.34

Consider next the molecule `CC(C)C[C@H](CN)CC(=O)O` in the same way.
-2.46

Then what about the molecule `CN(C)Cc1ccc(S(=O)(=O)n2ccc(/C=C/C(=O)NO)c2)cc1` ?
0.52

Also, `Cc1cc(C)c(S(=O)(=O)Nc2cccc(C(F)(F)F)c2)c(C)c1` please.
-1.28

Would you mind doing `CN1CCC(=C2c3ccccc3CCn3c(C=O)cnc32)CC1` as well?
-1.5

For `C[C@]12CC[C@H]3[C@@H](CC[C@@]45O[C@@H]4C(O)=C(C#N)C[C@]35C)[C@@H]1CC[C@@H]2O` then?
1.21

Proceed to `CN(C(=O)/C=C/c1ccoc1)[C@@H]1CC[C@@]2(O)[C@H]3Cc4ccc(O)c5c4[C@@]2(CCN3CC2CC2)[C@H]1O5`
-5.32

Same again, this time with `CC[C@@H](CO)NCCN[C@@H](CC)CO`
3.83

Another: `N#Cc1c(N)nc(SCc2ncc[nH]2)c(C#N)c1-c1ccc(O)cc1`
-0.59

Record: `O=c1c(O)c(-c2ccc(O)c(O)c2)oc2cc(O)cc(O)c12`
1.33

Same question for `Nc1ccncc1N` please.
-1.81

Again, but for `CC[C@H](CC[C@@H](C)[C@H]1CC[C@H]2[C@@H]3CC=C4C[C@@H](O[C@@H]5O[C@H](CO)[C@@H](O)[C@H](O)[C@H]5O)CC[C@]4(C)[C@H]3CC[C@]12C)C(C)C`
0.22

Likewise for `Cc1cc(=O)[nH]c(=S)[nH]1` ?
0.85

# repeat for `O=C(c1cncc(Br)c1)N1CCC(N2CCCC2)CC1`
-1.15

NC(=O)c1cc([N+](=O)[O-])cc([N+](=O)[O-])c1 [nitromide] ?
0.52

Would you kindly repeat that for `FC(F)(F)c1ccccc1-c1cc(C(F)(F)F)c2[nH]c(C3=NOC4(CCCCC4)C3)nc2c1` ?
-0.82

Another molecule to look at: `Clc1ccc(N/N=C(\c2ccccc2)c2ccccn2)nc1`
-0.45

Field entry: `CSc1nc(-c2ccc(F)cc2)c(-c2ccnc(N[C@@H](C)c3ccccc3)c2)[nH]1`
-3.63

Further, for `O=C1c2ccccc2C(Cc2ccnc(F)c2)(Cc2ccnc(F)c2)c2ccccc21` ?
0.2

Try this molecule too: `CS(=O)(=O)Nc1ccc2oc3c(OC(F)F)ccc(C(=O)Nc4c(Cl)cncc4Cl)c3c2c1`
-1

Entry `C[C@H](Cc1ccc(OCC(=O)O)cc1)NC[C@H](O)c1cccc(Cl)c1` please
-1

Request: `C[C@]12CCC(=O)C=C1CC[C@@H]1[C@@H]2CC[C@@]2(C)[C@H]1CC[C@]2(O)C(=O)CO`
-0.53

// same read-out, input: CN1C(=O)C(N2CCCCC2)S/C1=C\C(=O)O (configuration not stated)
-4.09
